- Tested on: MCF7
- testSummary: Cytotoxicity against human MCF7 cells after 72 hrs by MTT assay
- Format: functional, cell-based
- settings: MCF7, 72 h
metric: IC50
Answers without a unit are incomplete; give the number and then its unit.

Record CC(=O)[C@H]1CC[C@H]2[C@@H]3CCC4=C/C(=N/NC(N)=S)CC[C@]4(C)[C@H]3CC[C@]12C . Reported IC50: 20 µM

###

- Tested on: MDA-MB-231
- testSummary: Cytotoxicity against human MDA-MB-231 cells after 72 hrs by MTT assay
- Format: functional, cell-based
- settings: MDA-MB-231, 72 h
metric: IC50

// sample CC(=O)[C@H]1CC[C@H]2[C@@H]3CCC4=C/C(=N/NC(N)=S)CC[C@]4(C)[C@H]3CC[C@]12C , its IC50 was 25 µM
